Origin of measurements: paper PMC3713010

# measured target: Pax6 DNA-binding domain (BD-Pax6) (Mus musculus (B6), UniProt P63015 190-289)
# Sequence (P63015 190-289): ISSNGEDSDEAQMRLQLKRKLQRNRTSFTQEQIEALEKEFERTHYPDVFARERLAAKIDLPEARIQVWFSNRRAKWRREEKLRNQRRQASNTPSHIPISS
# procedure summary: EMSA; 10% glycerol, 20 mM HEPES pH 7.8, 45 mM KCl, 10 mM NaCl, 1 mM EDTA, 1 mM DTT, 0.2 ug/uL BSA, 0.1% NP-40, 50 ng poly-dIdC; 20 ng each GST protein; room temperature 30 min (heterodimers 4 C); 6% PAGE 0.25x TBE
# study conditions: protein: recombinant; tags: GST (N-terminal, pGEX-6P-1); label: 32P-dCTP fill-in of the 5' (dG)5 overhangs of both strands (Methods; control probes are given with GGG)

# binder, binding result
data = [
    ("4a (dsDNA) DNA 1: GGGGGGACTTAATTGTGAGTCTCTGTAAAATTAACAAACAAGTTACCCCCC DNA 2: GGGGGGTAACTTGTTTGTTAATTTTACAGAGACTCACAATTAAGTCCCCCC", "no binding"),
    ("61 (dsDNA) DNA 1: GGGGGTAAATTTTTCTAATCCTGACAAATCTCTTCACCCCC DNA 2: GGGGGTGAAGAGATTTGTCAGGATTAGAAAAATTTACCCCC", "binds"),
    ("75 (dsDNA) DNA 1: GGGGGGCTCTGGGTATAATTAACAATAAAATGCACCCCC DNA 2: GGGGGTGCATTTTATTGTTAATTATACCCAGAGCCCCCC", "binds"),
    ("3 (dsDNA) DNA 1: GGGGGACCTATACTTTGTTTTTATTGCCTAGTAATCCCCC DNA 2: GGGGGATTACTAGGCAATAAAAACAAAGTATAGGTCCCCC", "no binding"),
    ("18 (dsDNA) DNA 1: GGGGGCTTAGAATTAGTAATTTCTTGATATTGTCTGTTAAGCCCCC DNA 2: GGGGGCTTAACAGACAATATCAAGAAATTACTAATTCTAAGCCCCC", "binds"),
    ("40 (dsDNA) DNA 1: GGGGGTTTGTCATTTTGTAGTGCTAGGAATTAAACCCATGTCCCCC DNA 2: GGGGGACATGGGTTTAATTCCTAGCACTACAAAATGACAAACCCCC", "binds"),
    ("34 (dsDNA) DNA 1: GGGGGTTGTTCCCTTTGACTTCTTGTGACTTTAACAAATTCTAAAGCCCCC DNA 2: GGGGGCTTTAGAATTTGTTAAAGTCACAAGAAGTCAAAGGGAACAACCCCC", "binds"),
    ("30 (dsDNA) DNA 1: GGGGGTGTCTTCTCCCTAATGATTGTTGTATGACCCCCC DNA 2: GGGGGGTCATACAACAATCATTAGGGAGAAGACACCCCC", "no binding"),
    ("117 (dsDNA) DNA 1: GGGGGGAAAAACAAAGATTTAGTATAAACCCCC DNA 2: GGGGGTTTATACTAAATCTTTGTTTTTCCCCCC", "no binding"),
]
